tested on: A498 renal; experiment: NCI tumour cell line growth inhibition, 48 h
measured_property: GI50

Some solved entries appear below for comparison.
compound=COc1ccc2c(c1)CC[C@@H]1[C@@H]2CC[C@]2(C)C=C(/C=C/C(=O)c3ccccc3)C[C@@H]12 tgt="A498 renal" measured_property=GI50 value_reported="13.3 µM"
compound=COc1ccc2[nH]c(O)c(/C=c3/cc4c(c(-c5ccc(F)cc5)n3)=Nc3ccccc3-4)c2c1 tgt="A498 renal" measured_property=GI50 value_reported="13.2 µM"
compound="COc1cc([C@@H]2c3cc4c(cc3C(OC3O[C@@H]5COC(C)O[C@H]5[C@H](O)[C@H]3O)C3COC(=O)[C@@H]32)OCO4)cc(OC)c1O (some centres undefined)" tgt="A498 renal" measured_property=GI50 value_reported="0.605 µM"

Here is another compound to look at.
// compound "C1CC[N-]CC1.CC(=N\O)/C(C)=N/O.CC(=N\O)/C(C)=N/O.[CH2-]CCN1CCOCC1.[Co+2]" , assay A498 renal, GI50 value: > 100 µM

----------
tested on: SF-268 CNS; test: NCI tumour cell line growth inhibition, 48 h
measured_property: GI50

molecule_smiles=Cc1ccc2c(c1)C(=O)c1c-2n(CCCN=[N+]=[N-])c(=O)c2cc([N+](=O)[O-])ccc12 measured_property=GI50 value_reported="5.59 µM"
molecule_smiles=CN1CCN(CCOc2ccc(-c3cnc4c(-c5ccc(F)cc5)cnn4c3)cc2)CC1 measured_property=GI50 value_reported="2.03 µM"
molecule_smiles=O=c1c2c3c(sc2n2c(-c4ccc(Br)cc4)nnc2n1Cc1ccccc1)CCCC3 measured_property=GI50 value_reported="7.44 µM"
molecule_smiles=O=C(NCCCCOCC#Cc1ccccc1C#CCS(=O)(=O)c1ccccc1)c1cc2ccccc2[nH]1 measured_property=GI50 value_reported="12.4 µM"
molecule_smiles=CCCCCCNC(=O)Oc1ccc(/C(=C(\C)c2ccccc2)c2ccc(OCCN(CC)CC)cc2)cc1 measured_property=GI50 value_reported="5.54 µM"

Working through the 4 compounds below one at a time, give GI50 for each.
1. O=C1c2ccn(CCCCN3CCC(O)CC3)c2C(=O)c2c1c(O)c1ccccc1c2O
2. O=C(CC(=O)c1ccccc1)c1ccccc1
3. ClCC#CCSc1ncnc2c1ncn2CC#CCCl
4. COc1cccc(C2=C(c3cn(C)c4cccc(OC)c34)C(=O)NC2=O)c1

1: 17.8 µM; 2: 10.9 µM; 3: 1.33 µM; 4: 16.4 µM

The compound "CCc1nc(-n2c(-c3ccccc3)nc3ccccc3c2=O)nc(N)c1-c1ccc(Cl)cc1" showed GI50 equal to 73.2 µM

----------
system: RXF-631 renal; experiment: NCI tumour cell line growth inhibition, 48 h
measured_property: TGI

Previously resolved entries follow.
molecule=CC1=C(C(=O)Nc2ccccc2)C(c2ccc(C(C)C)cc2)C(C(=O)Nc2ccccc2)=C(C)N1 value_reported="> 85.1 µM"
molecule=CCOC(=O)/N=c1/nc(N(C)C)ss1 value_reported="> 100 µM"
molecule=NS(=O)(=O)c1ccc(NC(=O)COC(=O)c2cccc3c(=O)c4ccccc4[nH]c23)cc1 value_reported="> 100 µM"
molecule=CCN(CC)CCNc1ccc2ncn3c4cc(=O)ccc4c(O)c1c23 value_reported="12.5 µM"
molecule="COC(=O)C1C2CC3C(OC(=O)C31)C2OC(=O)[C@](OC)(c1ccccc1)C(F)(F)F (some centres not stated)" value_reported="> 100 µM"
molecule=C#CCN(C)C(=O)N(CC#C)N=O value_reported="> 100 µM"

Consider the record given below.
Field TGI (entry "c1ccc(CCn2cncn2)cc1" ) reads > 100 µM
